system: Plasmodium falciparum; experiment: GSK_TCMDC: Inhibition of Plasmodium falciparum Dd2 in whole red blood cells, using parasite LDH activity as an index of growth. Test compounds present at 2uM; format: functional
ATTRIBUTE MEASURED: Inhibition (%)
Give bare numbers, in %.

CN(c1ccccc1C(=O)Nc1ccccc1Oc1ccccc1)S(=O)(=O)c1ccccc1    80
Br.N=C(N)c1ccc(C(=O)Nc2cccc(C(=N)N)c2)cc1    82
CC1(CCc2ccccc2)N=C(N)N(Cc2ccccc2)C(=O)C1c1ccc(Cl)c(Cl)c1.O=C(O)C(F)(F)F (centres undefined)    96
CC1(C)N=C(N)N=C(N)N1OCCCCON1C(N)=NC(N)=NC1(C)C    95
Cl.Nc1ccnc2ccc(NC(=O)CCCCCc3ccccc3)cc12    30

For every item in the list below, what is its measured Inhibition?
1. CC(C)N(Cc1cnc2nc(N)nc(N)c2n1)c1ccc(Cl)c(Cl)c1
2. Cl.c1ccc2c(c1)ncn2-c1ccnc(Nc2ccncc2)n1
3. O=C(O)c1ccc2nc(-c3ccccn3)c(-c3ccccn3)nc2c1

Response given:
[98, 80, 18]

Challenge: Tell me Inhibition reported for `CC(C)CNCc1cccc(-c2cccc(CN(CCN(C)C)C(=O)NCCc3ccccc3)c2)c1.O=C(O)C(F)(F)F`
Response given: 83

====

system: Plasmodium falciparum; assay: GSK_TCMDC: Inhibition of Plasmodium falciparum 3D7 in whole red blood cells, using parasite LDH activity as an index of growth. Test compounds present at 2uM; format: functional
ATTRIBUTE MEASURED: Inhibition

As a guide, the following entries are already answered.
COc1ccc(CNCc2ccc(-c3ccc(-c4nc5cccc(C)c5[nH]4)s3)cc2)cc1.O=C(O)C(F)(F)F    100%
CN1CCC(NCc2cccc(-c3cccc(S(=O)(=O)NCc4ccccc4)c3)c2)CC1.O=C(O)C(F)(F)F    100%
COc1ccc(CN2CCCC(N3CC4(OC3=O)c3ccccc3-c3ccccc34)C2)c(O)c1 (configuration not stated)    92%

Below is a list of compounds. For each, state its recorded Inhibition.
1. O=C1NC(=O)C(c2cccc(NC(=O)c3ccncc3)c2)=C1c1ccccc1
2. CC(C)N1CCN(C(=O)c2ccc(CNCCCN3CCN(c4cccc(Cl)c4Cl)CC3)s2)CC1.Cl
3. Cc1cc(NC(=O)NCCN2CCC(NC(=O)c3ccc(Cl)cc3)CC2)c2ccccc2n1

Response given:
1: 100%; 2: 100%; 3: 90%

For every record below, what is its Inhibition?
1. CCCNC(=O)Nc1ccc(N(C)c2ccnc(NC3CC3)n2)cc1
2. Cc1cc(Nc2ccncc2)n2nc(C)c(-c3ccccc3Cl)c2n1
3. CN(C)CCCOc1ccc(CN2CC[C@H](NC(=O)c3ccc(Cl)c(Cl)c3)C2)c2ccccc12.O=C(O)C(F)(F)F
4. Cc1cc(-c2cccc3c(C(=O)N4CCc5cc6nccc(N7CCN8CCC[C@H]8C7)c6cc54)cccc23)cc(C)n1.Cl
5. CCC1(CC)C(=O)N=C(N2CCCCC2)N(C)C1=O
6. CON=C1CCC(Cn2ccnc2)(c2ccc(Cl)cc2Cl)CC1 (configuration not stated)

Response given:
100%
99%
100%
97%
89%
100%

====

tested on: Plasmodium falciparum; assay: GSK_TCMDC: Inhibition of Plasmodium falciparum 3D7 in whole red blood cells, using parasite LDH activity as an index of growth. Test compounds present at 2uM; assay type: functional
Exercise: for every item that follows, state its recorded Inhibition.
Numbers only, in %.

A selection of reference data follows.
O=C(NC1CC1)c1cnc(N2CCC(c3ccccc3)CC2)c(Cl)c1.O=C(O)C(F)(F)F    94
N#Cc1cccc(NC(=O)Nc2cccc(-c3ccc(-c4nc5cc(C(F)(F)F)ccc5[nH]4)cc3)c2)c1    100
COc1cccc2c(Oc3ccccc3C)ccnc12    85
CC(C)(C)c1ccc(CN2CCC(NC(=O)c3ccc(-c4ccccc4Cl)s3)CC2)cc1.O=C(O)C(F)(F)F    84
CCCCCCc1cc2cc(-c3csc(C=Cc4ccccc4)n3)c(=O)oc2cc1O    96
Fc1ccc2c(NN=Cc3ccccc3F)ccnc2c1    100
Cc1nc(-c2cccc(C(=O)Nc3cnc4ccccc4c3)c2)no1.O=C(O)C(F)(F)F    85
O=C(Nc1cc(Cl)ccc1O)c1ccc(Oc2ccc(C(=O)Nc3cc(Cl)ccc3O)cc2)cc1    97

Would you mind giving Inhibition for every compound in the list below?
1. COc1ccc(CCNc2ccnc3cc(Cl)ccc23)cc1OC.Cl
2. CS(=O)(=O)O.FC(F)(F)COc1ccc(CNCCCCCCNCc2ccc(OCC(F)(F)F)c3ccccc23)c2ccccc12
3. Cl.N=c1c2c(n(Cc3cccc(Cl)c3)c3c1CCC3)CCCC2
4. COc1ccccc1CNc1ncc(-c2ccsc2)c(-c2nccs2)n1
5. Cc1cc(NC2CCN(Cc3ccccc3)CC2)nc(NCCCCc2ccccc2)n1
6. CC1CCc2c(C(=O)N3CCc4ccccc4C3)csc2C1 (stereo not given)

Response given:
100
100
97
91
100
99

# map each compound to its Inhibition
1. O=C(Nc1ccc(C(=O)Oc2ccc(-c3ccccc3)cc2)cc1)N[C@@H](Cc1ccc(O)cc1)C(=O)NC1CCN(Cc2ccc(O)cc2)C1.O=C(O)C(F)(F)F (stereo not given in full)
2. CC1CCCC(NC(=O)CCOc2ccccc2)C1 (stereo not given)

Response given:
1: 94; 2: 96

Look up Inhibition for the entries below, preserving their order.
1. NC(=O)c1cccc(-n2ccc3cc(CNC4Cc5ccccc5C4)ccc32)c1.O=C(O)C(F)(F)F
2. CCCCOC(=O)c1ccc(NC(=O)Nc2ccc(Cn3ncc(N4CCCNCC4)c(Cl)c3=O)cc2)cc1.O=C(O)C(F)(F)F

Response given:
1: 88; 2: 92

Dear colleague, could you please provide Inhibition for the compounds listed below?
1. O=C(C=Cc1cn(-c2ccccc2)nc1-c1ccccc1)N1CCN(c2ccncc2)CC1
2. COc1ccc(NC(=O)[C@H](CC(C)C)Nc2cc(C)nc(NCCc3ccccc3)n2)cc1.O=C(O)C(F)(F)F
3. COc1cc2nc(NCCc3ccccc3)nc(NCc3cnn(C)c3C)c2cc1OC
4. CCNc1cc(C(=O)N[C@@H](Cc2ccccc2)[C@H](O)CNCCc2cccc(C(F)(F)F)c2)cc(N2CCCC2=O)c1.O=CO

Response given:
90
100
99
96

The values you see were collected from ChEMBL document CHEMBL1157539.
